- experimentalSystem: PLEKHJ1
- methodNotes: pooled miR-30 sensor sort-seq; sequence = guide strand; also: reference of the scale not given here
- conditionDescription: shRNA
testReadout: sensor-assay potency score (higher = more potent)
Provide a numeric answer; units are not to be included.

Completed entries (count: 5):
ATGAACTCGTAGCTGGCCCGAC: -0.947
TAGAAGATGAGGCTTCTCCGCA: -0.0375
TTCCTGTAGAAGATGAGGCTTC: 0.247
TTTGAACAGAACAAGCACCCTG: 0.823
TATGCCGAACTGTTCCAGGGGG: -0.541

For record TGACACTGCTCCTCGCTGCTGC the listed sensor-assay potency score (higher = more potent) is -0.0748

For record TGTACATTCATTCAGCACGGGG the listed sensor-assay potency score (higher = more potent) is -1.25

For record TCAGGGTCCTCAATGAAGCTGA the listed sensor-assay potency score (higher = more potent) is -0.114

----------
- experimentalSystem: GCKR
- methodNotes: pooled miR-30 sensor sort-seq; sequence = guide strand
- conditionDescription: shRNA
testReadout: sensor-assay potency score (higher = more potent)

Completed entries (count: 3):
TAGCAGTCGAACAATGTTCTCA: -0.15
TTCTGGTTAAACATGTCACTGT: 0.368
TAGCTCACGCTGGAACTTCTGG: -0.719

For record TTCCTTCTCATGTGCAACCTGG the listed sensor-assay potency score (higher = more potent) is -0.464

----------
- experimentalSystem: ADRA1D
- methodNotes: pooled miR-30 sensor sort-seq; sequence = guide strand
- conditionDescription: shRNA
testReadout: sensor-assay potency score (higher = more potent)
Provide a numeric answer; units are not to be included.

For record TTCACGATGAAATAGTTGGTGA the listed sensor-assay potency score (higher = more potent) is -0.48

For record TACCGCAGAAGCGCTCGTCAGG the listed sensor-assay potency score (higher = more potent) is -1.24

----------
- experimentalSystem: PLA2G4F
- methodNotes: pooled miR-30 sensor sort-seq; sequence = guide strand
- conditionDescription: shRNA
true means recorded sensor-assay potency score (higher = more potent) is -0.5 or above; false means it is below -0.5.

TTGTTCAGGACGTTGTATCGAC: true
TAGAGTGTGGAGATGCACCAGG: true
TGAACTCGCACCACTCTGCAAA: false

### Prompt // inclusive: sensor-assay potency score (higher = more potent) at least -0.5? input: TTTGTCGCTCCACACCTGGGGC
### Response false

### Prompt // inclusive: sensor-assay potency score (higher = more potent) at least -0.5? input: TTGCAGGTAACAGATCCGGGGT
### Response false

### Prompt // inclusive: sensor-assay potency score (higher = more potent) at least -0.5? input: TCGTCTGTGATATTCACACTGC
### Response false

### Prompt // inclusive: sensor-assay potency score (higher = more potent) at least -0.5? input: TTCTTGATAGCAGTGCATCCAG
### Response false

### Prompt // inclusive: sensor-assay potency score (higher = more potent) at least -0.5? input: TAGTACTGTAGCCGCTCCGTGG
### Response false

----------
- experimentalSystem: FAM9C
- methodNotes: pooled miR-30 sensor sort-seq; sequence = guide strand
- conditionDescription: shRNA
met means recorded sensor-assay potency score (higher = more potent) is -0.2 or above; not met means it is below -0.2.

### Prompt // inclusive: sensor-assay potency score (higher = more potent) at least -0.2? input: TAACTAAACACTGTCATGTGGT
### Response met

### Prompt // inclusive: sensor-assay potency score (higher = more potent) at least -0.2? input: AATATCTTCTAGCTCCTTGGTA
### Response met

### Prompt // inclusive: sensor-assay potency score (higher = more potent) at least -0.2? input: ATTCTGTTCTTTATTTCGCTGC
### Response not met

### Prompt // inclusive: sensor-assay potency score (higher = more potent) at least -0.2? input: TTACTGGATCCTTTCCTGCAAG
### Response not met

### Prompt // inclusive: sensor-assay potency score (higher = more potent) at least -0.2? input: TTTTGCAATCTTTTCAATCCTT
### Response met

Data credit: the OligoGym collection
